Target protein (sequence): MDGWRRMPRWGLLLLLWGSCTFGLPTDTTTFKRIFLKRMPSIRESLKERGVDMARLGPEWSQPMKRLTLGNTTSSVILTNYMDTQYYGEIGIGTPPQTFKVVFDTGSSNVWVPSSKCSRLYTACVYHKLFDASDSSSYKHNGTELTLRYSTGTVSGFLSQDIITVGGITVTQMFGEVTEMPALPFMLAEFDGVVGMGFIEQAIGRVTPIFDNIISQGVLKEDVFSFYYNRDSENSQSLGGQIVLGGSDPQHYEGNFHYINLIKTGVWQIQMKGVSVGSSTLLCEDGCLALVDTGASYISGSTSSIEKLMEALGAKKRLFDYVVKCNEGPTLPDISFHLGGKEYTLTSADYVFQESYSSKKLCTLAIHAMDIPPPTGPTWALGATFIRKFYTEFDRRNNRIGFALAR
Assay metric: IC50 (nM)

1: CCC(=O)NCC(C)(C)CNC(=O)[C@@H](C[C@H](O)[C@@H](N)C[C@H](Cc1ccc(OC)c(OCCCOC)c1)C(C)C)C(C)C
2: COCCCOc1cc(C[C@@H](C[C@H](N)[C@@H](O)C[C@H](C(=O)NCC(C)(C)CNC(=O)c2ccc(OC)cc2)C(C)C)C(C)C)ccc1OC
Pick one: 1 or 2 . Which one has the lower reported IC50? Answer by stating the label of the chosen item.
1

a: CCCC(=O)NCC(C)(C)CNC(=O)[C@@H](C[C@H](O)[C@@H](N)C[C@H](Cc1ccc(OC)c(OCCCOC)c1)C(C)C)C(C)C
b: COCCCOc1cc(C[C@@H](C[C@H](N)[C@@H](O)C[C@H](C(=O)NCC(C)(C)CNC(=O)N(C)C)C(C)C)C(C)C)ccc1OC
Could you point out whether the larger IC50 belongs to a or to b ? Answer with the label corresponding to your selection.
a
(a: 1.12 nM, b: 0.36 nM)

a: CCOC(=O)NCC(C)(C)CNC(=O)[C@@H](C[C@H](O)[C@@H](N)C[C@H](Cc1ccc(OC)c(OCCCOC)c1)C(C)C)C(C)C
b: COCCCOc1cc(C[C@@H](C[C@H](N)[C@@H](O)C[C@H](C(=O)NCC(C)(C)CNC(=O)C(F)(F)F)C(C)C)C(C)C)ccc1OC
Decide: a or b , by lowest recorded IC50. # reply format: chosen label
a
(a: 0.81 nM, b: 4.85 nM)
